tested on: LuxR (Aliivibrio fischeri)
Construct: a Δ-luxI derivative of V. fischeri ES114, in which the native lux operon behaves as the bioluminescent reporter; endogenous in cells; host or cells: V. fischeri ES114 (Δ-luxI)
Sequence (P35327 whole entry): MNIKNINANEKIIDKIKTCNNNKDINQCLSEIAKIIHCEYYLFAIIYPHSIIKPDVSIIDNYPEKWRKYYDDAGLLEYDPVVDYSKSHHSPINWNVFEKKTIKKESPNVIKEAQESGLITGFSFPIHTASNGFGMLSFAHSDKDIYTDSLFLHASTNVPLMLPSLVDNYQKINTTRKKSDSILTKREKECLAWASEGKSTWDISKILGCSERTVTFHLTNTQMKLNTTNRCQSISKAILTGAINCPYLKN
experiment summary: cell-based
Design: species or system Vibrio fischeri
condition: read-out: V. fischeri-LuxR Activation [%], 200 μM ligand; V. fischeri ES114 (Δ-luxI); normalized to OHHL
Would you kindly list activation at 200 µM for each of these molecules?

Problem: What value of activation at 200 µM has been reported for the following molecule? CCCCCC(=O)CC(=O)N[C@H]1CCOC1=O [compound 1, N-(3-oxo-octanoyl)-L-homoserine lactone, reference compound]
Result: ~25%

Problem: Another molecule: O=C(Cc1ccc([N+](=O)[O-])cc1)NC1CCOC1=O (stereo not shown)
Result: ~25%

Problem: Now the molecule CCCCCCC(=O)NC1CCOC1=O (stereo not shown)
Result: ~25%

Problem: Moving on to O=C(Cc1cccc([N+](=O)[O-])c1)N[C@H]1CCOC1=O [11n]
Result: ≥ 60%

Data provenance is patent US7910622B2.
